System: 317291-083-R-J1-PDC complex spheroids, viability;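 also: spheroids exposed to compounds for one week before readout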
Method notes: Anticancer human tumor 317291-083-R-J1-PDC patient-derived soft tissue sarcoma cell line growth inhibition [GQUAD]
Stated conditions: curve of first compound; second compound 0.0316 µM
Quantity: IC50

Reference set (2 entries):
{"Compound": "COc1ncnc(C2CC2)c1-c1ncc2cnn(Cc3ccc(-c4nc(C(F)(F)F)cn4C(C)C)cc3)c2n1 + Cc1[nH]c2ccc(F)cc2c1-c1nc2c3cccnc3c3ncccc3c2[nH]1", "IC50": "> 10 µM"}
{"Compound": "C=CC(=O)N1CCN(c2nc(=O)n(-c3c(C)ccnc3C(C)C)c3nc(-c4c(O)cccc4F)c(F)cc23)C(C)C1 (stereo not drawn) + Cc1[nH]c2ccc(F)cc2c1-c1nc2c3cccnc3c3ncccc3c2[nH]1", "IC50": "> 10 µM"}

I'd like to know its IC50. The compound in question is CC(=O)O[C@H]1C(=O)[C@@]2(C)[C@H]([C@H](OC(=O)c3ccccc3)[C@]3(O)C[C@H](OC(=O)[C@H](O)[C@@H](NC(=O)c4ccccc4)c4ccccc4)C(C)=C1C3(C)C)[C@]1(OC(C)=O)CO[C@@H]1C[C@@H]2O + CN(C)c1ccc(Nc2c3ccc(NC(=O)CCN4CCCC4)cc3nc3cc(NC(=O)CCN4CCCC4)ccc23)cc1
< 0.0316 µM

Reference source: PubChem BioAssay AID2060497
